- Test system: mouse
- PROCEDURE DETAILS: in vivo
- CONDITION PARAMETERS: oral route, even at a dose of 4,000 mg./kg.
MEASUREMENT KIND: Oral toxicity / tolerance (in words)

- COMPOUND: "CCCCCCCCCCCCCCCCOC1C(C2COC(C)(C)O2)OC2OC(C)(C)OC21 (centres unmarked)"
  Oral toxicity / tolerance (in words): "well tolerated"
- COMPOUND: "CC1(C)OCC(C2OC3OC(C)(C)OC3C2OCc2ccccc2)O1 (centres unmarked)"
  Oral toxicity / tolerance (in words): "well tolerated"
- COMPOUND: "CCOC1O[C@H]([C@@H](COCc2ccccc2)OCc2ccccc2)[C@H](OCc2ccccc2)[C@H]1O (some centres unmarked) [I, reference compound]"
  Oral toxicity / tolerance (in words): "well tolerated"
- COMPOUND: "CC(=O)OC1C(C2COC(C)(C)O2)OC2OC(C)(C)OC21 (centres unmarked)"
  Oral toxicity / tolerance (in words): "well tolerated"

Then this compound:
Q: Identify the reported Oral toxicity / tolerance (in words) for the following entry. C=CCOC1C(C2COC(C)(C)O2)OC2OC(C)(C)OC21 (centres unmarked)
Result: well tolerated

* * *

For each record, write down the corresponding LD50.
- PROCEDURE DETAILS: in vivo
- CONDITION PARAMETERS: mouse, in vivo, po
Numbers only, in mg/kg.

Dear colleague, could you please provide LD50 for the compounds listed below?
1. CC(=O)Oc1ccccc1C(=O)O [Aspirin, reference compound]
2. CC1(C)OCC(C2OC3OC(C)(C)OC3C2OCCN2CCOCC2)O1 (stereo not shown)
3. CCCCOC1C(C2COC(C)(C)O2)OC2OC(C)(C)OC21 (stereo not shown)
4. CC1(C)OCC(C2OC3OC(C)(C)OC3C2OCCN2CCCC2)O1 (stereo not shown)
5. CCCCCOC1C(C2COC(C)(C)O2)OC2OC(C)(C)OC21 (stereo not shown)

Result:
1. 1000
2. 1500
3. 3000
4. 1500
5. 4000

Dear colleague, could you please provide LD50 for the compounds listed below?
1. CN(C)CCOC1C(C2COC(C)(C)O2)OC2OC(C)(C)OC21 (stereo not shown)
2. CCCOC1C(C2COC(C)(C)O2)OC2OC(C)(C)OC21 (stereo not shown)

Result:
[1500, 1000]

* * *

- PROCEDURE DETAILS: in vivo
- CONDITION PARAMETERS: mouse, in vivo, po
For each record, write down the corresponding LD50.
Numbers only, in mg/kg.

Sample answers from the record:
- COMPOUND: "COC1C(C2COC(C)(C)O2)OC2OC(C)(C)OC21 (stereo not shown)"
  RECORDED RESULT: 2000
- COMPOUND: "CCOC1C(C2COC(C)(C)O2)OC2OC(C)(C)OC21 (stereo not shown)"
  RECORDED RESULT: 2000
- COMPOUND: "CC1(C)OCC(C2OC3OC(C)(C)OC3C2O)O1 (stereo not shown)"
  RECORDED RESULT: 4000

Dear colleague, could you please provide LD50 for the compounds listed below?
1. CC(C)N(CCOC1C(C2COC(C)(C)O2)OC2OC(C)(C)OC21)C(C)C (stereo not shown)
2. CCN(CC)CCOC1C(C2COC(C)(C)O2)OC2OC(C)(C)OC21 (stereo not shown)
3. C#CCOC1C(C2COC(C)(C)O2)OC2OC(C)(C)OC21 (stereo not shown)

Result:
1: 1000; 2: 3000; 3: 1500

* * *

- PROCEDURE DETAILS: in vivo
- CONDITION PARAMETERS: mouse, in vivo, po
MEASUREMENT KIND: LD50

Sample answers from the record:
- COMPOUND: "C=CCOC1C(C2COC(C)(C)O2)OC2OC(C)(C)OC21 (stereo not shown)"
  LD50: "> 4000 mg/kg"
- COMPOUND: "CC1(C)OCC(C2OC3OC(C)(C)OC3C2OCCN(Cc2ccccc2)Cc2ccccc2)O1 (stereo not shown)"
  LD50: "> 2000 mg/kg"
- COMPOUND: "CC1(C)OCC(C2OC3OC(C)(C)OC3C2OCCN2CCCCC2)O1 (stereo not shown)"
  LD50: "> 1000 mg/kg"

Then this compound:
Q: Identify the reported LD50 for the following entry. CC(=O)OC1C(C2COC(C)(C)O2)OC2OC(C)(C)OC21 (stereo not shown)
Result: > 4000 mg/kg
